Where do these numbers come from? They come from patent US20040142978A1.

Provide the reported IC50 of each item.
Tested on: TNFα release from U937 cells
Assay: U937 Cell TNFα Release Assay (LPS-stimulated, TNFα ELISA)
Format: cell-based
Conditions: Homo sapiens, U-937; U937 cells, LPS 100 ng/ml, 4 hrs; read-out: TNFα release assay IC50
Where a name gives a salt, the structure may show the parent alone.
Numbers only, in µM.

Here's what some known entries look like.
[[record]]
compound = "N#Cc1c(N)nc2c(c1-c1ccccc1)CCc1n[nH]cc1-2 [Example 100, bis(trifluoroacetate)]"
readoutkind = "IC50"
observed = 17.7

[[record]]
compound = "N#Cc1c(N)nc2c(c1-c1ccco1)CCc1cn[nH]c1-2 [Example 105]"
readoutkind = "IC50"
observed = 0.9


From here, focus on the item given below.
So what does the record say about IC50 for N#Cc1c(-c2ccco2)cc(-c2cc[nH]n2)nc1N [Example 106, trifluoroacetate] ?
4
